B1: TRIM43 (parent)
chain: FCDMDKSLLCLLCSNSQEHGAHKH

# Variants of: B1
# run description: protein stability index of a GFP-peptide fusion (GPS, HEK-293T) (PSI 1-6); higher = more stable;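 note: lentivirally expressed fusions sorted by FACS into six bins by GFP to DsRed ratio, PSI derived from sequencing read proportions per bin multiplied by bin number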
# conditions: c terminus: a fixed tail appended
For each record, write down the corresponding protein stability index.
Could you respond with only the numeric value?

## Task Query (variant): Q17D ; field requested: protein stability index
## Result 1.78

## Task Query (variant): M4T ; field requested: protein stability index
## Result 1.64

## Task Query (variant): H19V ; field requested: protein stability index
## Result 1.59

## Task Query (variant): L11D ; field requested: protein stability index
## Result 2.75

## Task Query (variant): S14R ; field requested: protein stability index
## Result 2.2

## Task Query (variant): L8P ; field requested: protein stability index
## Result 2.51

## Task Query (variant): L11S ; field requested: protein stability index
## Result 1.8

## Task Query (variant): C2H ; field requested: protein stability index
## Result 2.22

## Task Query (variant): L9E ; field requested: protein stability index
## Result 2.99

## Task Query (variant): N15G ; field requested: protein stability index
## Result 1.94

## Task Query (variant): N15L ; field requested: protein stability index
## Result 2.4

The reported numbers originate from the supplement of paper PMC10567573.
